Target: T1, IFN-αF (human, UniProt P01568 24-189)
T1 construct: Recombinant, HEK293; also called IFN-α21
T1 chain: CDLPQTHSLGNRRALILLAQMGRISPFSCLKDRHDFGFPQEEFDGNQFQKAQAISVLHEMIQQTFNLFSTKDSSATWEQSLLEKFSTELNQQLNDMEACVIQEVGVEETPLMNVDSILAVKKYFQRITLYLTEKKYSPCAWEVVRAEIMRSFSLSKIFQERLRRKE
Assay: ProteOn SPR, cell supernatant;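 also: each binding measurement used just a single antigen concentration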
Reported Kd by item:
Express the result in nM but write the number alone.

>  <binder>
IFWM3416 (antibody, IgG1, V domains shown, mAb; IgG1/kappa said of the parent and of selected mAbs; also called IFWB3151) VH: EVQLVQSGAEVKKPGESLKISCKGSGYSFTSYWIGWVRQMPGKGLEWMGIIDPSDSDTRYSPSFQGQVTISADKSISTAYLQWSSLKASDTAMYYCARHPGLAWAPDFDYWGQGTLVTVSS VL: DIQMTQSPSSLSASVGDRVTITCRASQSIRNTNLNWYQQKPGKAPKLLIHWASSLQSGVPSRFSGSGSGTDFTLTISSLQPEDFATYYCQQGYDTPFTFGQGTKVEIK

>  <readout>
Kd

>  <test result>
0.045

$$$$
>  <binder>
IFWM3393 (antibody, IgG1, V domains shown, mAb; IgG1/kappa said of the parent and of selected mAbs; also called IFWB3128) VH: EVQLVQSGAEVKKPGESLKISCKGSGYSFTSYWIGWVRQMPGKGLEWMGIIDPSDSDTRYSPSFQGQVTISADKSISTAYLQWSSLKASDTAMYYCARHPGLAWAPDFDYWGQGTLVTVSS VL: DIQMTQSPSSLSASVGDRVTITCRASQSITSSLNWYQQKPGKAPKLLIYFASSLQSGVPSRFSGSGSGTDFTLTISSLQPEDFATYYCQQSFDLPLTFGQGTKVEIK

>  <readout>
Kd

>  <test result>
0.041

$$$$

Turning now to a further binder:
State its Kd for this binder: IFWM3378 (antibody, IgG1, V domains shown, mAb; IgG1/kappa said of the parent and of selected mAbs; also called IFWB3113) VH: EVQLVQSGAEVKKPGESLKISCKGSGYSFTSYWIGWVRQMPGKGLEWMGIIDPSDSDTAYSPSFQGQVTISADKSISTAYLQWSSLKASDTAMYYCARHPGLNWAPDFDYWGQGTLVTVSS VL: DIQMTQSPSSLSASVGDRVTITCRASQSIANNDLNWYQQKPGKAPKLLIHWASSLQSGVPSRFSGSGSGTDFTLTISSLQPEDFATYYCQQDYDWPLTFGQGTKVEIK
0.168
